# credit: patent US5229381A

molecular target: human polymorphonuclear leukocyte elastase (Homo sapiens, UniProt P08246); construct: Crude extract of human polymorphonuclear leukocytes (PMN) containing elastase activity; endogenous in cells; test: Inhibition of human polymorphonuclear leukocyte (granulocyte) elastase via hydrolysis of Boc-AAPAN or Boc-AAPVN; conditions: Table I; read-out: Ki, concentration of the inhibitor giving 50% of the control enzyme activity
Sequence (P08246 30-247 limits assumed): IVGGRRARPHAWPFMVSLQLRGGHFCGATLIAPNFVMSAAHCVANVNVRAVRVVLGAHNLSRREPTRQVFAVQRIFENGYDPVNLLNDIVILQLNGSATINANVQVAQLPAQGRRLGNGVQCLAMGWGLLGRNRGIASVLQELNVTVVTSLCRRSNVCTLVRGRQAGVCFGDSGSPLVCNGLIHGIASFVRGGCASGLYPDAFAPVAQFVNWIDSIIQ
pKi: −log10 of the molar value.
Use 6 as the dividing line for pKi, with the line itself on the fulfilled side and lower values as not fulfilled.

>  <Compound>
CC[C@H]1C(=O)N(C(C)=O)[C@H]1OC(=O)c1ccccc1 (relative stereo) [Table I: H; C2 H5 (cis); OCOPh; COCH3]

>  <Class>
fulfilled

$$$$
>  <Compound>
CC[C@H]1C(=O)N(S(=O)(=O)c2ccc(C)cc2)[C@H]1C(=O)OCc1ccc(C(=O)O)cc1 (relative stereo)

>  <Class>
not fulfilled

$$$$
>  <Compound>
CCOC(=O)N1C(=O)[C@H](CC)[C@H]1Oc1ccc(C(=O)O)cc1 (relative stereo)

>  <Class>
not fulfilled

$$$$

API: above_or_equal(metric=pKi, cutoff=6) for item CCC1C(=O)N(C(=O)c2ccccc2)C1C(C)=O (stereo not drawn) [Table I: H; C2 H5 (trans); COCH3; COPh] fulfilled

Determine whether this compound has pKi no lower than 6: CCC1C(=O)N(C(C)=O)C1OC(=O)CCC(=O)O (stereo not shown) not fulfilled

Check the entry CC[C@H]1C(=O)N(C(=O)c2ccccc2)[C@H]1OC(C)=O (relative stereo) [Table I: H; C2 H5 (cis); OCOCH3; COPh] : does pKi equal or exceed 6? fulfilled

Does the reported pKi for CC[C@H]1C(=O)N(S(=O)(=O)c2ccc(C)cc2)[C@H]1C(=O)N(C)CC(=O)O (relative stereo) fall at or above the 6 mark? not fulfilled

* * *

molecular target: human polymorphonuclear leukocyte elastase (Homo sapiens, UniProt P08246); construct: Crude extract of human polymorphonuclear leukocytes (PMN) containing elastase activity; endogenous in cells; host or cells: human polymorphonuclear leukocytes (crude extract); assay: Inhibition of human polymorphonuclear leukocyte (granulocyte) elastase via hydrolysis of Boc-AAPAN or Boc-AAPVN; assay type: biochemical; settings: pH 7.5, Table VI, (per mole per second); read-out: kobs/I, second order rate constant of inactivation of the enzyme
Could you label it condition met if measured kinact/KI is 30000 M⁻¹ s⁻¹ or higher, and condition not met otherwise?

The examples below pair each entry with its known result.
>  <Structure>
CC[C@@H](NC(=O)N1C(=O)C(CC)(CC)[C@@H]1Oc1ccc(C(=O)O)cc1)c1ccc(-c2ccccc2)cc1

>  <Assayed target>
human polymorphonuclear leukocyte elastase (Homo sapiens, UniProt P08246)

>  <Class>
condition not met

$$$$
>  <Structure>
CCC[C@@H](NC(=O)N1C(=O)C(CC)(CC)[C@@H]1Oc1ccc(C(=O)O)c(C)c1)c1ccc(C)cc1

>  <Assayed target>
human polymorphonuclear leukocyte elastase (Homo sapiens, UniProt P08246)

>  <Class>
condition met

$$$$
>  <Structure>
CC[C@@H](NC(=O)N1C(=O)C(CC)(CC)[C@@H]1Oc1ccc(C(=O)O)c(O)c1)c1ccccc1

>  <Assayed target>
human polymorphonuclear leukocyte elastase (Homo sapiens, UniProt P08246)

>  <Class>
condition met

$$$$
>  <Structure>
CCC1(CC)C(=O)N(C(=O)N[C@H](C)c2ccccc2)[C@H]1Oc1ccc(C(=O)O)cc1

>  <Assayed target>
human polymorphonuclear leukocyte elastase (Homo sapiens, UniProt P08246)

>  <Class>
condition not met

$$$$
>  <Structure>
CCC1(CC)C(=O)N(C(=O)N[C@@H](c2ccccc2)C(C)C)[C@H]1Oc1ccc(C(=O)O)cc1

>  <Assayed target>
human polymorphonuclear leukocyte elastase (Homo sapiens, UniProt P08246)

>  <Class>
condition met

$$$$

In plain terms: is recorded kinact/KI at least 30000 M⁻¹ s⁻¹ for CCC1(CC)C(=O)N(C(=O)N[C@H](C)c2ccccc2)[C@H]1Oc1ccc(C=CC(=O)O)cc1 ? condition not met

Quick check, kinact/KI >= 30000 M⁻¹ s⁻¹? CCC1(CC)C(=O)N(C(=O)N[C@H](C)c2ccccc2)[C@H]1Oc1ccc(C(=O)CCC(=O)O)cc1 condition met

* * *

// reported kinact/KI per item
target: human polymorphonuclear leukocyte elastase (Homo sapiens, UniProt P08246); construct: Crude extract of human polymorphonuclear leukocytes (PMN) containing elastase activity; endogenous in cells; host or cells: human polymorphonuclear leukocytes (crude extract); assay: Inhibition of human polymorphonuclear leukocyte (granulocyte) elastase via hydrolysis of Boc-AAPAN or Boc-AAPVN; assay type: biochemical; conditions: pH 7.5, Table III, (per mole per second); read-out: kobs/I, second order rate constant of inactivation of the enzyme
# output: numeric value plus its unit

Sample answers from the record:
>  <Molecule>
CCC1(CC)C(=O)N(C(=O)NCc2ccc(Cc3ccccc3)cc2)C1Oc1ccc(C(=O)O)cc1 (stereo not shown)

>  <kinact/KI>
8030 M⁻¹ s⁻¹

$$$$
>  <Molecule>
CCC1(CC)C(=O)N(C(=O)NCc2ccccc2)C1NC(=O)OC (stereo not shown)

>  <kinact/KI>
496 M⁻¹ s⁻¹

$$$$
>  <Molecule>
C=CCOC1N(C(=O)NCc2ccc(-c3ccccc3)cc2)C(=O)C1(CC)CC (stereo not shown)

>  <kinact/KI>
12500 M⁻¹ s⁻¹

$$$$

Please examine the following record next.
State kinact/KI (human polymorphonuclear leukocyte elastase (Homo sapiens, UniProt P08246)) of CCC1(CC)C(=O)N(C(=O)NCc2ccc(C(C)(C)C)cc2)C1Oc1ccc(C(=O)O)cc1 (stereo not shown) . 21800 M⁻¹ s⁻¹

* * *

target: human polymorphonuclear leukocyte elastase (Homo sapiens); construct: Crude extract of human polymorphonuclear leukocytes (PMN) containing elastase activity; endogenous in cells; host or cells: human polymorphonuclear leukocytes (crude extract); experiment: Inhibition of human polymorphonuclear leukocyte (granulocyte) elastase via hydrolysis of Boc-AAPAN or Boc-AAPVN; assay type: biochemical; details: pH 7.5, Table VI, (per mole per second); read-out: kobs/I, second order rate constant of inactivation of the enzyme
Measurement name: kinact/KI (M⁻¹ s⁻¹)
A number alone suffices; assume M⁻¹ s⁻¹.

Some molecules with known kinact/KI results, for comparison:
>  <Molecule>
CC[C@@H](NC(=O)N1C(=O)C(CC)(CC)[C@@H]1Oc1ccc(C(=O)O)cc1)c1ccccc1 [Table VI: 4-COOH; Et; H]

>  <Assayed target>
human polymorphonuclear leukocyte elastase (Homo sapiens)

>  <Unit of measurement>
M⁻¹ s⁻¹

>  <Quantitative result>
76200

$$$$
>  <Molecule>
CCC1(CC)C(=O)N(C(=O)N[C@@H](C)c2ccc(-c3ccccc3)cc2)[C@H]1Oc1ccc(C(=O)O)cc1 [Table VI: 4-COOH; Me(s); 4-Ph]

>  <Assayed target>
human polymorphonuclear leukocyte elastase (Homo sapiens)

>  <Unit of measurement>
M⁻¹ s⁻¹

>  <Quantitative result>
49200

$$$$
>  <Molecule>
CC[C@@H](NC(=O)N1C(=O)C(CC)(CC)[C@@H]1Oc1ccc(CC(=O)O)cc1)c1ccccc1 [Table VI: 4-CH2 COOH; Et; H]

>  <Assayed target>
human polymorphonuclear leukocyte elastase (Homo sapiens)

>  <Unit of measurement>
M⁻¹ s⁻¹

>  <Quantitative result>
126000

$$$$

Attention now turns to another entry.
Tell us which kinact/KI value is on record for CCC1(CC)C(=O)N(C(=O)N[C@H](C)c2ccc(C)cc2)[C@H]1Oc1ccc(C(=O)O)cc1 [Table VI: 4-COOH; Me; 4-Me] 10700

* * *

Measured kinact/KI values are reported for all entries that follow.
molecular target: human polymorphonuclear leukocyte elastase (Homo sapiens, UniProt P08246); construct: Crude extract of human polymorphonuclear leukocytes (PMN) containing elastase activity; endogenous in cells; host or cells: human polymorphonuclear leukocytes (crude extract); test: Inhibition of human polymorphonuclear leukocyte (granulocyte) elastase via hydrolysis of Boc-AAPAN or Boc-AAPVN; assay type: biochemical; conditions: pH 7.5, read-out: kobs/I, second order rate constant of inactivation of the enzyme
Number only, in M⁻¹ s⁻¹; omit the unit.

Some entries whose results are on file:
>  <Compound>
CCC1C(=O)N(C(C)=O)C1OC(=O)CCC(=O)O (stereo not shown)

>  <kinact/KI (M⁻¹ s⁻¹)>
4510

$$$$
>  <Compound>
CCC1C(=O)N(C(C)=O)C1OC(C)=O (stereo not shown)

>  <kinact/KI (M⁻¹ s⁻¹)>
15100

$$$$
>  <Compound>
CCO[C@@H]1[C@@H](CC)C(=O)N1C(C)=O (relative stereo) [Table I: H; C2 H5 (trans); OC2 H5; COCH3]

>  <kinact/KI (M⁻¹ s⁻¹)>
1670

$$$$

Proceed to the following item.
// Input: CC[C@H]1C(=O)N(S(=O)(=O)c2ccc(C)cc2)[C@H]1C(=O)N1CCCC1 (relative stereo) . Output its kinact/KI only. 541

* * *

molecular target: human polymorphonuclear leukocyte elastase (Homo sapiens, UniProt P08246); construct: Crude extract of human polymorphonuclear leukocytes (PMN) containing elastase activity; endogenous in cells; host or cells: human polymorphonuclear leukocytes (crude extract); experiment: Inhibition of human polymorphonuclear leukocyte (granulocyte) elastase via hydrolysis of Boc-AAPAN or Boc-AAPVN; type: biochemical; settings: pH 7.5, Table VI, (per mole per second); read-out: kobs/I, second order rate constant of inactivation of the enzyme
Each item that follows carries a reported kinact/KI.
The reply should contain only the number, in M⁻¹ s⁻¹.

As a guide, the following entries are already answered.
>  <Compound>
CC[C@@H](NC(=O)N1C(=O)C(CC)(CC)[C@@H]1Oc1cccc(CC(=O)O)c1)c1ccccc1

>  <kinact/KI (M⁻¹ s⁻¹)>
81000

$$$$
>  <Compound>
CCC1(CC)C(=O)N(C(=O)N[C@@H](COC)c2ccccc2)[C@H]1Oc1ccc(C(=O)O)cc1 [Table VI: 4-COOH; CH2 OMe(R); H]

>  <kinact/KI (M⁻¹ s⁻¹)>
6980

$$$$

Turning now to a further compound:
Tell me kinact/KI of CCC[C@@H](NC(=O)N1C(=O)C(CC)(CC)[C@@H]1Oc1ccc(CC(=O)O)c(Cl)c1)c1ccc(C)cc1 when tested on human polymorphonuclear leukocyte elastase (Homo sapiens, UniProt P08246). 589000
